System: MRC5
Experiment: Cytotoxic activity of compound against uninfected MRC5 cells
Assay type: functional
Conditions: Homo sapiens
assay_metric: CC50

1) CSc1nc(N)nc2c1ncn2C1CC(O)C(CO)S1 (stereo not drawn): > 20 µM
2) COc1nc(N)nc2c1ncn2C1CC(O)C(CO)S1 (stereo not drawn): > 5 µM
3) CCCNc1nc(N)nc2c1ncn2C1CC(O)C(CO)S1 (stereo not drawn): > 50 µM
4) CC(C)Nc1nc(N)nc2c1ncn2C1CC(O)C(CO)S1 (stereo not drawn): > 100 µM
5) Nc1nc(O)c2ncn(C3CC(O)C(CO)S3)c2n1 (stereo not drawn): 2 µM
6) Nc1nc(Cl)c2ncn(C3CC(O)C(CO)S3)c2n1 (stereo not drawn): 2 µM
7) Nc1nc(NC2CC2)c2ncn(C3CC(O)C(CO)S3)c2n1 (stereo not drawn): 15 µM
8) CCN(C)c1nc(N)nc2c1ncn2C1CC(O)C(CO)S1 (stereo not drawn): > 20 µM
9) CN(c1nc(N)nc2c1ncn2C1CC(O)C(CO)S1)C1CC1 (stereo not drawn): > 20 µM
10) C=CCNc1nc(N)nc2c1ncn2C1CC(O)C(CO)S1 (stereo not drawn): > 200 µM
11) Nc1nc(N2CCCC2)c2ncn(C3CC(O)C(CO)S3)c2n1 (stereo not drawn): > 200 µM
12) Nc1nc(N2CCCCC2)c2ncn(C3CC(O)C(CO)S3)c2n1 (stereo not drawn): > 200 µM
13) Nc1nc(OCC2CC2)c2ncn(C3CC(O)C(CO)S3)c2n1 (stereo not drawn): > 20 µM

---

Tested on: MOLT-4
Test: Cytotoxic activity of compound against growing cultures of human leukemic T-cell lines Molt-4
Assay type: functional
Measured CC50, listed per entry.
assay_metric: CC50 (µM)

1. Nc1nc(OCC2CC2)c2ncn(C3CC(O)C(CO)S3)c2n1 (stereo not given): 13
2. Nc1nc(O)c2ncn(C3CC(O)C(CO)S3)c2n1 (stereo not given): 14
3. CN(c1nc(N)nc2c1ncn2C1CC(O)C(CO)S1)C1CC1 (stereo not given): 100
4. C=CCNc1nc(N)nc2c1ncn2C1CC(O)C(CO)S1 (stereo not given): 40
5. COc1nc(N)nc2c1ncn2C1CC(O)C(CO)S1 (stereo not given): 2

---

Measured CC50, listed per entry for reference.
Test system: CCRF-CEM
Assay: Cytotoxic activity of compound against growing cultures of human leukemic T-cell lines CEM
Format: functional
assay_metric: CC50

1. Nc1nc(OCC2CC2)c2ncn(C3CC(O)C(CO)S3)c2n1 (centres undefined): 41 µM
2. COc1nc(N)nc2c1ncn2C1CC(O)C(CO)S1 (centres undefined): 8 µM
3. C=CCNc1nc(N)nc2c1ncn2C1CC(O)C(CO)S1 (centres undefined): 60 µM
4. Nc1nc(O)c2ncn(C3CC(O)C(CO)S3)c2n1 (centres undefined): 9 µM

Numbers sourced from ChEMBL document CHEMBL1129667.
